- Tested on: barnyardgrass (Echinochloa crus-galli)
- test.summary: Test A postemergence application, visual injury rating
- Format: in vivo
- experimental.context: 31 g ai/ha, 0 to 100 scale, 0 no effect, 100 complete control
Entries annotated with measured Barnyardgrass plant response rating
Could you keep your reply to the number by itself?

1. CC(=O)Oc1c(C)nn(C)c(=O)c1-c1ccc(Cl)c2sccc12 [Compound 60] : 0
2. CCC(=O)Oc1c(C)nn(C)c(=O)c1-c1ccc(Cl)c2sccc12 [Compound 58] : 0
3. COC(=O)Oc1c(C)nn(C)c(=O)c1-c1ccc(Cl)c2oc(C)cc12 [Compound 53] : 0

If you can, please state the reported Barnyardgrass plant response rating value of CCC(=O)Oc1c(C)nn(C)c(=O)c1-c1c(Br)ccc2c1cnn2C [Compound 64] .
0

If you can, please state the reported Barnyardgrass plant response rating value of CC(=O)Oc1c(C)nn(C)c(=O)c1-c1ccc(Cl)c2cc(C)oc12 [Compound 42] .
10

If you can, please state the reported Barnyardgrass plant response rating value of Cc1nn(C)c(=O)c(-c2ccc(Cl)c3sccc23)c1OC(=O)c1ccccc1 [Compound 57] .
0

If you can, please state the reported Barnyardgrass plant response rating value of CC(=O)Oc1c(Cl)nn(C)c(=O)c1-c1nccc2ccccc12 [Compound 66] .
0

If you can, please state the reported Barnyardgrass plant response rating value of CCC(=O)Oc1c(C)nn(C)c(=O)c1-c1c(C)ccc2cc(C)oc12 [Compound 22] .
10

If you can, please state the reported Barnyardgrass plant response rating value of CC(=O)Oc1c(C)nn(C)c(=O)c1-c1ccc(Cl)c2oc(C)cc12 [Compound 54] .
0

----------
- Test system: kochia (Kochia scoparia)
- test.summary: Test A postemergence application, visual injury rating
- Format: in vivo
- experimental.context: 500 g ai/ha, 0 to 100 scale, 0 no effect, 100 complete control
readout: Kochia plant response rating
Could you keep your reply to the number by itself?

1. Cc1nn(C)c(=O)c(-c2c(C)sc3ncccc23)c1OC(=O)OC(C)C : 0
2. CCC(=O)Oc1c(C)nn(C)c(=O)c1-c1c(C)ccc2sccc12 : 100
3. CCC(=O)Oc1c(C)nn(C)c(=O)c1-c1cccc2sccc12 : 20
4. Cc1nc2c(-c3c(O)c(C)nn(C)c3=O)cccc2s1 : 0

Now look at this entry.
If you can, please state the reported Kochia plant response rating value of Cc1cnc2sc(C)c(-c3c(O)c(C)nn(C)c3=O)c2c1 .
90

----------
Entries annotated with measured Kochia plant response rating
- Test system: kochia (Kochia scoparia)
- test.summary: Test A postemergence application, visual injury rating
- Assay type: in vivo
- experimental.context: 125 g ai/ha, 0 to 100 scale, 0 no effect, 100 complete control
Could you keep your reply to the number by itself?

1) Cc1nn(C)c(=O)c(-c2ccc(Cl)c3sccc23)c1OC(=O)c1ccccc1 : 0

If you can, please state the reported Kochia plant response rating value of CC(=O)Oc1c(C)nn(C)c(=O)c1-c1ccc(Cl)c2sccc12 .
70

If you can, please state the reported Kochia plant response rating value of Cc1cnc2sc(C)c(-c3c(O)c(C)nn(C)c3=O)c2c1 .
30

----------
- Tested on: wheat (Triticum aestivum)
- test.summary: Test A postemergence application, visual injury rating
- Format: in vivo
- experimental.context: 125 g ai/ha, 0 to 100 scale, 0 no effect, 100 complete control
readout: Wheat plant response rating
Could you keep your reply to the number by itself?

1. Cn1nc(Cl)c(O)c(-c2ccc(F)c3ccoc23)c1=O : 0

If you can, please state the reported Wheat plant response rating value of Cc1cc2c(-c3c(O)c(C)nn(C)c3=O)ccc(Cl)c2o1 .
0

If you can, please state the reported Wheat plant response rating value of CC(=O)Oc1c(C)nn(C)c(=O)c1-c1ccc(Cl)c2ccsc12 .
0

If you can, please state the reported Wheat plant response rating value of CCC(=O)Oc1c(C)nn(C)c(=O)c1-c1c(C(F)(F)F)ccc2cc(C)oc12 .
0

If you can, please state the reported Wheat plant response rating value of COC(=O)Oc1c(C)nn(C)c(=O)c1-c1ccc(Cl)c2ccsc12 .
0

If you can, please state the reported Wheat plant response rating value of Cc1nc2c(-c3c(O)c(C)nn(C)c3=O)cccc2s1 .
0

----------
- Tested on: blackgrass (Alopecurus myosuroides)
- test.summary: Test A postemergence application, visual injury rating
- Type: in vivo
- experimental.context: 31 g ai/ha, 0 to 100 scale, 0 no effect, 100 complete control
readout: Blackgrass plant response rating

Some molecules with known Blackgrass plant response rating results, for comparison:
1. Cc1nn(C)c(=O)c(-c2c(Br)ccc3c2cnn3C)c1O : 0
2. Cc1ccc2sc(Cl)cc2c1-c1c(O)c(C)nn(C)c1=O : 40
3. Cc1nn(C)c(=O)c(-c2ccc(Cl)c3sccc23)c1OC(=O)c1ccccc1 : 0
4. COC(=O)Oc1c(C)nn(C)c(=O)c1-c1ccc(Cl)c2oc(C)cc12 : 0
5. CC(=O)Oc1c(C)nn(C)c(=O)c1-c1c(C(F)(F)F)ccc2cc(C)oc12 : 0
6. Cc1cc2ccc(C(F)(F)F)c(-c3c(O)c(C)nn(C)c3=O)c2o1 : 0
7. Cc1cc2c(-c3c(O)c(C)nn(C)c3=O)ccc(Cl)c2o1 : 0
8. Cc1nn(C)c(=O)c(-c2ccc(Cl)c3sccc23)c1O : 0

If you can, please state the reported Blackgrass plant response rating value of CCC(=O)Oc1c(C)nn(C)c(=O)c1-c1c(Br)ccc2c1cnn2C .
60

----------
- Test system: pigweed (Amaranthus retroflexus)
- test.summary: Test A postemergence application, visual injury rating
- Format: in vivo
- experimental.context: Amaranthus retroflexus, post-emergence, 240 h, 125 g ai/ha, 0 to 100 scale, 0 no effect, 100 complete control, read-out: Pigweed plant response rating
readout: pest or weed control at 125 g/ha (%)
The answer is to be given in %; state only the numeric part.

Some molecules with known pest or weed control at 125 g/ha results, for comparison:
1. COc1c(C)nn(C)c(=O)c1-c1ccc(F)c2ccoc12 : 0
2. CC(=O)Oc1c(C)nn(C)c(=O)c1-c1cccc2cc(C)oc12 : 60
3. CCOC(=O)Oc1c(C)nn(C)c(=O)c1-c1c(C)ccc2sccc12 : 90
4. Cc1nn(C)c(=O)c(-c2ccc(F)c3ccoc23)c1O : 20

Now look at this entry.
If you can, please state the reported pest or weed control at 125 g/ha value of Cc1cc2cccc(-c3c(O)c(C)nn(C)c3=O)c2o1 .
30

----------
- Test system: kochia (Kochia scoparia)
- test.summary: Test A preemergence, directed soil spray, visual injury rating
- Assay type: in vivo
- experimental.context: 500 g ai/ha, 0 is no effect, 100 is complete control
- Source text: Seeds of plant species selected from barnyardgrass (Echinochloa crus-galli), kochia (Kochia scoparia), ragweed (common ragweed, Ambrosia elatior), ryegrass, It. (Italian ryegrass, Lolium multiflorum), foxtail, giant (giant foxtail, Setaria faberii), and pigweed (Amaranthus retroflexus), were planted into a blend of loam soil and sand and treated preemergence with a directed soil spray using test chemicals formulated in a non-phytotoxic solvent mixture which included a surfactant. […]
Entries annotated with measured Plant response rating (0 to 100 scale), Kochia
Could you keep your reply to the number by itself?

Some compounds with known Plant response rating (0 to 100 scale), Kochia results, for comparison:
1. Cc1nn(C)c(=O)c(-c2c(C)sc3ncccc23)c1O : 0
2. Cc1cnc2sc(C)c(-c3c(OC(=O)C4CC4)c(C)nn(C)c3=O)c2c1 : 30

Now look at this entry.
If you can, please state the reported Plant response rating (0 to 100 scale), Kochia value of CCC(=O)Oc1c(C)nn(C)c(=O)c1-c1c(C)ccc2sccc12 .
90

----------
- System: pigweed (Amaranthus retroflexus)
- test.summary: Test A preemergence, directed soil spray, visual injury rating
- Assay type: in vivo
- experimental.context: Amaranthus retroflexus, pre-emergence, 240 h, 125 g ai/ha, 0 is no effect, 100 is complete control, read-out: Plant response rating (0 to 100 scale), Pigweed
readout: pest or weed control at 125 g/ha
Could you kindly put the unit after your number?

Some compounds with known pest or weed control at 125 g/ha results, for comparison:
1. CCOC(=O)Oc1c(C)nn(C)c(=O)c1-c1c(C)ccc2sccc12 : 90%
2. Cc1cc2cccc(-c3c(O)c(C)nn(C)c3=O)c2o1 : 60%
3. COc1c(C)nn(C)c(=O)c1-c1ccc(F)c2ccoc12 : 0%
4. Cc1nn(C)c(=O)c(-c2cccc3snc(C)c23)c1O : 80%

If you can, please state the reported pest or weed control at 125 g/ha value of Cc1cc2ccc(C)c(-c3c(O)c(C)nn(C)c3=O)c2o1 .
100%

----------
- Tested on: kochia (Kochia scoparia)
- test.summary: Test A preemergence, directed soil spray, visual injury rating
- Type: in vivo
- experimental.context: 125 g ai/ha, 0 is no effect, 100 is complete control
Outcome label depends on Plant response rating (0 to 100 scale), Kochia relative to 40: at/above gives 1 (yes), below gives 0 (no).

Example cases with answers are listed next.
1. CCC(=O)Oc1c(C)nn(C)c(=O)c1-c1cccc2sccc12 : 0 (no)
2. COC(=O)Oc1c(C)nn(C)c(=O)c1-c1ccc(Cl)c2oc(C)cc12 : 0 (no)
3. CCC(=O)Oc1c(C)nn(C)c(=O)c1-c1ccc(Cl)c2sccc12 : 1 (yes)
4. CCc1sc2ncccc2c1-c1c(O)c(C)nn(C)c1=O : 0 (no)
5. Cc1nn(C)c(=O)c(-c2cccc3scnc23)c1O : 0 (no)
6. CCC(=O)Oc1c(C)nn(C)c(=O)c1-c1c(C(F)(F)F)ccc2cc(C)oc12 : 1 (yes)
7. Cc1nn(C)c(=O)c(-c2ccc(Cl)c3ccsc23)c1O : 0 (no)

# input for lookup
Hi team, for CCC(=O)Oc1c(C)nn(C)c(=O)c1-c1ccc(Cl)c2cc(C)oc12 , is the recorded Plant response rating (0 to 100 scale), Kochia at or above 40?
0 (no)
